Target: human Factor IXa (human, UniProt P00740 47-191; P00740 227-461)
Assay: cell-based or functional assay
Square brackets hold non-standard residues; d marks the D form. Primed or numbered codes have the meaning given here. Side chains are listed from the residue outwards. Ends that are not written are not given here. * marks the point of attachment. Biotin = O=C1N[C@H]2[C@H](CS[C@H]2CCCCC(=O)*)N1; NMeL = CN[C@@H](CC(C)C)C(=O)O; NMeK = CN[C@@H](CCCCN)C(=O)O; PEG2″ = not defined here
measure: EC50 [µM], FXa generation assay

Example entries and their recorded answers appear below.
binder	measure	observedMeasurement
RAPGKLQCLASYCWLFWTGIA	EC50 [µM], FXa generation assay	< 0.5 µM
PRIRTVGPSSRSASGKLTCLASYCWLFWTGIA	EC50 [µM], FXa generation assay	< 0.5 µM
RRAPGKCTALASYCWLFWTGIA-OH (cysteine pairing not given here) [RRAPGKCTALASYCWLFWTGIA-COOH]	EC50 [µM], FXa generation assay	> 1 µM

Would you kindly share the measured EC50 [µM], FXa generation assay for RRAPGKLTCLASYCWLFWK([PEG2″-Biotin])GIA (not fully specified; printed as RRAPGKLTCLASYCWLFWK(PEG2-Biotin)GIA; cysteine pairing not given here) [RRAPGKLTCLASYCWLFWK(PEG2-Biotin)GIA] ?
< 0.5 µM

Would you kindly share the measured EC50 [µM], FXa generation assay for RPRSSAHDRPRRAAGKLTCLASYCWLFWTGIA [RPRSSAHDRP RRAAG KLTCLASYCWLFWTGIA] ?
> 1 µM

Would you kindly share the measured EC50 [µM], FXa generation assay for "RSFTSELTCLASSCRRFHHVPP" ?
> 20 µM

Would you kindly share the measured EC50 [µM], FXa generation assay for PRIRTVGPGSRSASGKSTCLASYCWLFWTGIAX (not fully specified; D-Arg 4, D-Arg 11, C-terminal PEG4-Pra) [PRIrTVGPGSrSASGKSTCLASYCWLFWTGIA-PEG4-Pra] ?
< 0.5 µM

Would you kindly share the measured EC50 [µM], FXa generation assay for "KLKCLSSECQLL" ?
> 20 µM

Would you kindly share the measured EC50 [µM], FXa generation assay for [NMeK]LTCLASYCWLF (cysteine pairing not given here) [MeLys-LTCLASYCWLF] ?
< 0.5 µM

Would you kindly share the measured EC50 [µM], FXa generation assay for RRAPGKLCALASYCWLFWTGIA-NH2 (cysteine pairing not given here) [RRAPGKLCALASYCWLFWTGIA-CONH2] ?
> 1 µM

Would you kindly share the measured EC50 [µM], FXa generation assay for KLLKLLLKLLLKLLK[dK][NMeL]TCLASYCWLF (not fully specified; printed as KLLKLLLKLLLKLLK-k-MeLeu-TCLASYCWLF; cysteine pairing not given here) [KLLKLLLKLLLKLLK-k-MeLeu-TCLASYCWLF] ?
< 0.5 µM

Would you kindly share the measured EC50 [µM], FXa generation assay for "PRISTVGPGSRSASGKLTCLASYCWLFWTGIA" ?
< 0.5 µM

Would you kindly share the measured EC50 [µM], FXa generation assay for "RRAPGKLQCLASYCWLFWKGIA" ?
> 5 µM

Would you kindly share the measured EC50 [µM], FXa generation assay for "KKTCLASYCWLF" ?
> 50 µM

Would you kindly share the measured EC50 [µM], FXa generation assay for "RRAPGKLQCLASYCWLFKTGIA" ?
> 10 µM

Would you kindly share the measured EC50 [µM], FXa generation assay for RRAPGCLTALASYCWLFWTGIA-OH (cysteine pairing not given here) [RRAPGCLTALASYCWLFWTGIA-COOH] ?
> 1 µM

Would you kindly share the measured EC50 [µM], FXa generation assay for "SKWEHQRGCLANNCWLFTLAPG" ?
> 50 µM

Would you kindly share the measured EC50 [µM], FXa generation assay for "KLTCLASYCWLK" ?
> 100 µM

Would you kindly share the measured EC50 [µM], FXa generation assay for "QLTCLASECGLS" ?
> 20 µM

Would you kindly share the measured EC50 [µM], FXa generation assay for "TCLASYCWLF" ?
< 0.5 µM
